These measurements were taken from PubChem BioAssay (NCI).

Test system: DU-145 prostate
protocol_summary: NCI-60 one-dose screen, 48 h (100 = growth as untreated, 0 = no growth, -100 = all killed)
condition_details: 10 µM unless noted
This is part of a sample that, as a whole, favours compounds with a hit. Of some 83,000 tested, about 20% had one in any assay. Calls of active or inactive are those of the source. How the source made its calls: active means growth percent below 10; inactive means the rest.
Provide the recorded growth for the entries that follow.

Known growth results, listed for orientation:
| compound | experimental_system | growth |
| --- | --- | --- |
| Nc1nc(N(Cc2ccccc2)c2ccccc2)c2cn[nH]c2n1 | DU-145 prostate | 88.2% (inactive) |
| CCN(CC)CCOc1ccc2ccc(=O)oc2c1 | DU-145 prostate | 121% (inactive) |
| COc1nc(/C=C\Nc2ccc3c(c2)OCCOCCOCCOCCO3)nc(OC)n1 | DU-145 prostate | 97.2% (inactive) |
| O=C(NN1C(=O)CSC1c1cccc([N+](=O)[O-])c1)c1ccc(NC(=O)c2ccccn2)cc1 (configuration not stated) | DU-145 prostate | 94.1% (inactive) |
| N#Cc1c(-c2cccc(Cl)c2)cc(-c2cccnc2)[nH]c1=O | DU-145 prostate | 94.9% (inactive) |
| C[C@H]1[C@H](C)CC[C@]2(C(=O)NCCNCCN)CC[C@]3(C)C(=CC[C@@H]4[C@@]5(C)CCC(=O)C(C)(C)[C@@H]5CC[C@]43C)[C@H]12 | DU-145 prostate | 51.6% (inactive) |

In the following, a different compound is considered.
## Input Item CN1CCOCCN(C)Cc2ccc3ccc(cc3c2)CN(C)CCOCCN(C)Cc2ccc3ccc(cc3c2)C1 : provide growth
## Output 57.8% (inactive)

---

System: HOP-62 NSCLC
protocol_summary: NCI-60 one-dose screen, 48 h
condition_details: 10 µM unless noted
Compounds without any hit were thinned out: in the full panel of roughly 83,000, 20% have a hit. Active and inactive are the calls of the source. The calls were made as follows: active = growth percent below 10; inactive = the rest.
Choose the fitting class; nothing outside Y = active, N = inactive is accepted.

// known answers, use as guide
| molecule | assigned_label |
| --- | --- |
| Cn1cc(-c2csc(-c3cn(CCCN4CCOCC4)c4ccc(F)cc34)n2)c2cccnc21 | N |
| CCN(CC)CCn1c2ccc(OC)cc2c2sc3cc(O)ccc3c(=O)c21 | N |
| OC1(c2ccccc2)c2ccccc2N(c2ccccc2)c2ccc(Cl)cc21 (stereo not drawn) | Y |
| O=C1Nc2ccccc2/C1=N/N1C(=O)CN(CCCl)C1=O | N |
| N#Cc1nn(-c2cc(=O)[nH]c3ccc(Br)cc23)c(N)c1C#N | N |
| COC(=O)c1c2c(c[n+]([O-])c1C)C(=O)C=C(NCc1ccccc1)C2=O | Y |
| COc1cc2c(c(OC)c1OC)C(=O)CC(c1cccc(C(=O)Nc3ccccc3Br)c1)O2 (stereo not drawn) | N |
| COc1ccc(C=Nc2c(C(=O)Nc3cccc(Cl)c3C)sc3nc(C)c(C(=O)/C=C/c4ccc(OC)cc4)cc23)cc1 | N |
| CCOC(=O)C/C(=N\Nc1cc(=O)[nH]c2ccc(C)cc12)C(=O)OCC | N |
| O=C(NC1CCC(Br)CC1)C1CCCC(S(=O)(=O)NC2CCCCC2)C1 (stereo not drawn) | N |

## Input Which outcome was assigned to O=C1/C(=C/c2c[nH]c(=O)[nH]c2=O)SC(=S)N1Cc1ccccc1 in this test?
## Output N

## Input Which outcome was assigned to C=C(c1ccc(C(=O)O)c(F)c1)c1cc2c(cc1C)C(C)(C)CCC2(C)C in this test?
## Output N

## Input Which outcome was assigned to Cc1[nH]c(C(=O)Nc2ccccc2OC2CCN(CCN3CCOCC3)CC2)c(Cl)c1Cl in this test?
## Output N

## Input Which outcome was assigned to Cc1cccc(-c2nc(C(C)C)sc2-c2ccnc(NCCCNS(=O)(=O)c3ccc(Cl)cc3)c2)c1 in this test?
## Output N

## Input Which outcome was assigned to COc1ccc(C2[C@@H](c3ccccc3)C(=O)N2c2cc(OC)c(OC)c(OC)c2)cc1F (stereo partly drawn) in this test?
## Output N

## Input Which outcome was assigned to COc1cc(Cc2cc(-c3ccccc3)nn(Cc3ccccc3)c2=O)cc(OC)c1OC in this test?
## Output N

## Input Which outcome was assigned to COc1ccc(C(O)c2cc3c(N)c(C(=O)Nc4cccc5ccccc45)sc3nc2C)cc1 (stereo not drawn) in this test?
## Output N

## Input Which outcome was assigned to c1ccc(Cn2cc3c(c2-c2ccccc2)CCc2cnoc2-3)cc1 in this test?
## Output N

## Input Which outcome was assigned to COC(=O)c1ccc2c(c1)c1c(C)c3cnccc3c(C)c1n2C in this test?
## Output Y

---

Tested on: NCI-H460 lung
protocol_summary: NCI-60 one-dose screen, 48 h
condition_details: 10 µM unless noted
Procedure: Growth inhibition of the NCI-H460 human Non-Small Cell Lung tumor cell line is measured as a screen for anti-cancer activity. Cells are grown in 96 well plates and exposed to the test compound for 48 hours. Compounds are tested at a single concentration, which is 10^-5 M for most compounds. The reported endpoint is percent growth (GI% or GIPRCNT), where numbers from 0 - 100% represent growth inhibition, and numbers from -100% - 0 represent cell death. […]
This is part of a sample that, as a whole, favours compounds with a hit. Of some 83,000 tested, about 20% had one in any assay. Active and inactive are the calls of the source. Rule for the calls: active = growth percent below 10; inactive = the rest.
Choose the fitting class; nothing outside active, inactive is accepted.

// known answers, use as guide
| compound | assigned_label |
| --- | --- |
| CS(=O)(=O)Nc1cc(-c2ccc3ncnc(Nc4ccc5c(cnn5Cc5ccccc5F)c4)c3c2)cnc1Cl | inactive |
| O=C(Nc1cc(Cl)cc(Cl)c1)Oc1c(Cl)c(Cl)c(Cl)c(Cl)c1Cl | inactive |
| COCC(=O)Oc1cc(-c2ccc(C)cc2C)c(OC(=O)COC)c(-c2ccc(C)cc2C)c1 | inactive |
| COc1ccc(C2CC(n3ccnc3)c3cc(OC)c(OC)c(OC)c32)cc1O (centres undefined) | inactive |
| CCN(CC)CCN1C(=O)c2c(c3c4ccccc4[nH]c3c3ccc4ccccc4c23)C1=O | inactive |

## Input Which outcome was assigned to COC(=O)c1ccc2cc(OC)c(OC)cc2c1 in this test?
## Output inactive

## Input Which outcome was assigned to COc1ccc(/C=C(\C(=O)NCc2cccnc2)S(=O)(=O)c2ccccc2)cc1OC in this test?
## Output inactive

## Input Which outcome was assigned to CCOC(=O)c1ccc[nH]1 in this test?
## Output inactive

## Input Which outcome was assigned to COc1ccc(CNc2ccc3nc(NC(=O)CN4CCCCCC4)sc3c2)cc1 in this test?
## Output inactive

## Input Which outcome was assigned to O=C(Nc1ccc(Nc2ccncc2)cc1)c1ccc(Nc2ccnc3ccc([N+](=O)[O-])cc23)cc1 in this test?
## Output inactive

## Input Which outcome was assigned to CCCC(=O)NC(c1ccc2c(c1)OCO2)c1cc(Cl)c2cccnc2c1O (centres undefined) in this test?
## Output inactive

## Input Which outcome was assigned to O=C(/C=C/c1cn(-c2ccccc2)nc1-c1ccccc1)CCC(=O)NO in this test?
## Output inactive

## Input Which outcome was assigned to Clc1cccc(C2Cc3cnccc3-c3[nH]c4ccncc4c32)c1 (centres undefined) in this test?
## Output inactive

## Input Which outcome was assigned to CCOC(=O)c1nnn(Cc2cc(=O)oc3ccc(O)cc23)c1C in this test?
## Output inactive

## Input Which outcome was assigned to N#Cc1c(-c2ccc(Cl)cc2)nc(NN=Cc2ccc[nH]2)nc1N1CCOCC1 in this test?
## Output inactive

## Input Which outcome was assigned to O=C(NC1CCC(Br)CC1)C1CCCC(S(=O)(=O)NC2CCCCC2)C1 (centres undefined) in this test?
## Output inactive

## Input Which outcome was assigned to COc1ccc(/C=C(/C(=O)N2CCNCC2)c2cc(OC)c(OC)c(OC)c2)cc1O in this test?
## Output inactive

## Input Which outcome was assigned to C=CN(C(=O)N1CCN(c2cc3c(cc2F)c(=O)c(C(=O)O)cn3C2CC2)CC1)c1nc(-c2ccccc2)cs1 in this test?
## Output inactive

## Input Which outcome was assigned to C=C(C)[C@@H]1CC[C@]2(C(=O)N3CCNCC3)CC[C@]3(C)[C@H](CC[C@@H]4[C@@](C)(CCC(=O)N5CCNCC5)[C@H](C(=C)C)CC[C@]43C)[C@@H]12 in this test?
## Output active

---

Provide the recorded growth for the entries that follow.
Test system: COLO 205 colon
protocol_summary: NCI-60 one-dose screen, 48 h (100 = growth as untreated, 0 = no growth, -100 = all killed)
condition_details: 10 µM unless noted
The panel holds about 83,000 compounds, 20% with a hit somewhere; the sample as a whole holds those more often.
One number for each entry, in %.

| molecule | measured_number |
| --- | --- |
| COC1C(O)CC(OC2CC(OC3CC(O[C@@H]4C(=O)c5c(cc6cc(OC7CC(OC8CC(O)C(O)C(C)O8)C(O)C(C)O7)c(C)c(O)c6c5O)CC4[C@H](OC)C(=O)O)OC(C)C3O)OC(C)C2O)OC1C (stereo partly specified) | 14.7 |
| CCOC(=O)NCCCC(=O)NCCc1ccccc1 | 114 |
| CNC(=O)c1cc(Oc2ccc3c(c2)sc2nc(-c4ccc(Cl)c(C(F)(F)F)c4)cn23)ccn1 | 58.4 |
| C/C(=N\Nc1ccccc1)c1ccc(NC2=CC(=O)c3ccccc3C2=O)cc1 | 88.2 |
| COc1ccc(C2C3=C(COC3=O)N(CCO)c3cc4c(cc32)OCO4)cc1OC (stereo unspecified) | 83.6 |

In the following, a different molecule is considered.
## Input Item COCC(=O)Oc1cc(-c2ccc(C)cc2C)c(OC(=O)COC)c(-c2ccc(C)cc2C)c1 : provide growth
## Output 48.4
